- Measured Target: CYP3A5 (Homo sapiens, UniProt P20815)
- Sequence (P20815 whole entry): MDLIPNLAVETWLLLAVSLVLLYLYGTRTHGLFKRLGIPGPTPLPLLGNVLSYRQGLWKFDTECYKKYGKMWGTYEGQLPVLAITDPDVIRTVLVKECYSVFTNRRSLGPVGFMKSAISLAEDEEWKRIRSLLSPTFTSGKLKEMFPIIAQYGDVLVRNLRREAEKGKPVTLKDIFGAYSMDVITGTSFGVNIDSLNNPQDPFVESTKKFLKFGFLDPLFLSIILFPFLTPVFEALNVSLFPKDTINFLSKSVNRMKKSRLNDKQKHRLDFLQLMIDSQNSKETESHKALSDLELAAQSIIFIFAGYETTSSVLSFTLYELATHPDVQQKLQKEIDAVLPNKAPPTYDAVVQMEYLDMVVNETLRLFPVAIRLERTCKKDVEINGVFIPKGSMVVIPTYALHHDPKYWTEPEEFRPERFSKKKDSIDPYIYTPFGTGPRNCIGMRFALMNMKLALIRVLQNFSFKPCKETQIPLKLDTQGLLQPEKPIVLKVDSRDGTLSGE
- Assay Remarks: Inhibition of human CYP3A5 expressed in supersomes assessed inhibition of 1'-OH midazolam formation preincubated at 2 uM followed by addition of 20-fold diluted buffer with 20 uM MDZ by LC-MS method in presence of NADPH
- Format: ADME
- Conditions: supersomes expressing human CYP3A5, probe midazolam (20 uM; 1'-OH midazolam formation)
Metric Name: inhibition at 2 µM (%)

Molecule: C=CC[C@@H]1/C=C(\C)C[C@H](C)C[C@H](OC)[C@H]2O[C@@](O)(C(=O)C(=O)N3CCCC[C@H]3C(=O)O[C@H](/C(C)=C/[C@@H]3CC[C@@H](O)[C@H](OC)C3)[C@H](C)[C@@H](O)CC1=O)[C@H](C)C[C@@H]2OC [TACROLIMUS ANHYDROUS]
Metric Name: inhibition at 2 µM
Recorded Result: 52

Taken from ChEMBL document CHEMBL3526092.
